Format: in vivo
Conditions: human, plasma, oral, 30 mg/day, GM AUC0-24, plasma, cycle 1 day 1, GM (% GCV)
ATTRIBUTE MEASURED: AUC(0-t) (ng·h/mL)
Give just the numeric value; ng·h/mL need not be written.

What value of measured AUC(0-t) is listed for "Cn1cc(-c2cc(S(C)(=O)=O)ccc2OCC2CC2)c2ccccc2c1=O" ?
5080
